system: Breast cancer cell lines; assay: NCI in vitro cytotoxicity, whole panel; type: cell-based; conditions: Homo sapiens; exposure period of at least 48 hrs; read-out: IC50, range over breast cell lines

Molecule: COc1ccc(-c2nc3sccn3c2/C=C/C(=O)c2cc(OC)c(OC)c(OC)c2)cc1
IC50: 1.9 to 3.46 µM

Molecule: COc1ccc(C(=O)/C=C/c2c(C(F)(F)F)nc3sccn23)cc1OC
IC50: 0.76 to 6.18 µM

Molecule: COc1cc(C(=O)/C=C/c2c(-c3ccc(F)cc3)nc3sccn23)cc(OC)c1OC
IC50: 2.05 to 3.76 µM

Molecule: COc1cc(C(=O)/C=C/c2c(C(F)(F)F)nc3sccn23)cc(OC)c1OC
IC50: 1.25 to 2.92 µM

Molecule: COc1cc(C(=O)/C=C/c2c(-c3ccc(F)cc3)nc3sc(C)cn23)cc(OC)c1OC [Compound 19e]
IC50: 1.81 to 8.29 µM
